System: 282377-053-R-J1-PDC complex spheroids, viability;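 also: spheroids exposed to compounds for 7 days before readout; percent of vehicle DMSO control viability with 100% = untreated-like growth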
Assay: Anticancer human tumor 282377-053-R-J1-PDC patient-derived colon adenocarcinoma cell line growth inhibition [GQUAD]
Conditions: second compound 10 µM; first compound 1 µM; stronger effect = lower value

[
  {
    "compound": "C#Cc1c(F)ccc2cc(O)cc(-c3ncc4c(N5CC6CCC(C5)N6)nc(OCC56CCCN5CC(F)C6)nc4c3F)c12 (stereo unspecified) + Cc1cnc(CNC(=O)c2c(=O)c3ccc(N4CCCN(C)CC4)nc3n3c2sc2ccccc23)cn1",
    "viability, T/C": "46%"
  },
  {
    "compound": "CCCS(=O)(=O)Nc1ccc(F)c(C(=O)c2c[nH]c3ncc(-c4ccc(Cl)cc4)cc23)c1F + CN(C)c1ccc(Nc2c3ccc(NC(=O)CCN4CCCC4)cc3nc3cc(NC(=O)CCN4CCCC4)ccc23)cc1",
    "viability, T/C": "52.3%"
  },
  {
    "compound": "C=CCn1c(=O)c2cnc(Nc3ccc(N4CCN(C)CC4)cc3)nc2n1-c1cccc(C(C)(C)O)n1 + Cc1[nH]c2ccc(F)cc2c1-c1nc2c3cccnc3c3ncccc3c2[nH]1",
    "viability, T/C": "11.4%"
  },
  {
    "compound": "CCCS(=O)(=O)Nc1ccc(F)c(C(=O)c2c[nH]c3ncc(-c4ccc(Cl)cc4)cc23)c1F + Cc1[nH]c2ccc(F)cc2c1-c1nc2c3cccnc3c3ncccc3c2[nH]1",
    "viability, T/C": "22.8%"
  },
  {
    "compound": "CC1COCCN1c1cc(C2(O)CC3CCC(C2)O3)c2cnn(-c3ccn[nH]3)c2n1 (stereo unspecified) + Cc1[nH]c2ccc(F)cc2c1-c1nc2c3cccnc3c3ncccc3c2[nH]1",
    "viability, T/C": "2.7%"
  },
  {
    "compound": "CC(C)(O)C1CCC(Nc2ccc3ncc(-c4cccc(C(F)(F)F)c4)n3n2)CC1 (stereo unspecified) + CN(C)c1ccc(Nc2c3ccc(NC(=O)CCN4CCCC4)cc3nc3cc(NC(=O)CCN4CCCC4)ccc23)cc1",
    "viability, T/C": "64.7%"
  },
  {
    "compound": "Cc1cccc(N(C)C(=O)C2C(O)CCN2c2nc(C)cc(C(F)(F)F)c2C#N)c1 (stereo unspecified) + Cc1[nH]c2ccc(F)cc2c1-c1nc2c3cccnc3c3ncccc3c2[nH]1",
    "viability, T/C": "43.6%"
  },
  {
    "compound": "CC1COCCN1c1cc(-c2ccnn2C)c2ccnc(-c3ccn[nH]3)c2n1 (stereo unspecified) + Cc1[nH]c2ccc(F)cc2c1-c1nc2c3cccnc3c3ncccc3c2[nH]1",
    "viability, T/C": "5.71%"
  },
  {
    "compound": "COc1cc(C2c3cc4c(cc3C(OC3OC5COC(C)OC5C(O)C3O)C3COC(=O)C23)OCO4)cc(OC)c1O (stereo unspecified) + Cc1cnc(CNC(=O)c2c(=O)c3ccc(N4CCCN(C)CC4)nc3n3c2sc2ccccc23)cn1",
    "viability, T/C": "49.1%"
  },
  {
    "compound": "Cc1cccc(N(C)C(=O)C2C(O)CCN2c2nc(C)cc(C(F)(F)F)c2C#N)c1 (stereo unspecified) + CN(C)c1ccc(Nc2c3ccc(NC(=O)CCN4CCCC4)cc3nc3cc(NC(=O)CCN4CCCC4)ccc23)cc1",
    "viability, T/C": "105%"
  },
  {
    "compound": "CC1COCCN1c1cc(C2(O)CC3CCC(C2)O3)c2cnn(-c3ccn[nH]3)c2n1 (stereo unspecified) + Cc1cnc(CNC(=O)c2c(=O)c3ccc(N4CCCN(C)CC4)nc3n3c2sc2ccccc23)cn1",
    "viability, T/C": "18%"
  }
]
